Please respond with reported melting point for every item in the list.

// sample CCCC(CCC)n1c(CC)nc2[nH]c(=O)n(C)c(=O)c21 , its melting point was 152 to 153 °C

// sample Cn1nnnc1-c1cn(C)c2cc(S(C)=O)ccc2c1=O (stereo not given) , its melting point was 237 to 240 °C

// sample Brc1cnc(Sc2ncccn2)nc1 , its melting point was 178 to 180 °C

// sample CCCCCC(CC(=O)Nc1cc(C(N)=O)ccc1C(C)(C)C)c1cc(C(N)=O)c(OC)cc1OC (stereo not given) , its melting point was 160 to 163 °C

// sample O=C(O)[C@H](Cc1ccccc1)NS(=O)(=O)c1ccc(N2CCC(c3ccccc3)CC2)cc1 , its melting point was 167 to 169 °C

// sample CCc1c(-c2ccc(OCc3ccccc3)cc2)c2cc(C(=O)OC)c3cccc1n32 , its melting point was 129 to 131 °C

// sample COC(=O)Cc1nc(-c2ccc(Cl)cc2)oc1Oc1cc(C)ccc1C , its melting point was 113 °C

// sample CNc1nc(C)nc(N2CCCC(C)C2)n1 (stereo not given) , its melting point was 155 to 156 °C

// sample CC1(CCC#N)CCC2OCCOC2CC1=O (stereo not given) , its melting point was 58 to 60 °C

// sample Cc1nc(N2CCc3ccccc3CC2)c(C#N)c(=O)n1C[C@H]1COC(C)(C)O1 , its melting point was 166 to 168 °C
